Measured inhibition accompanies every entry in the list below.
TARGET ENTITY: Virion infectivity factor (Human immunodeficiency virus type 1 group M subtype B (isolate BH10)) + Virion infectivity factor (Human immunodeficiency virus type 1 group M subtype B (isolate BRU/LAI)) + Virion infectivity factor (Human immunodeficiency virus type 1 group M subtype B (isolate PCV12)) + Virion infectivity factor (Human immunodeficiency virus type 1 group M subtype B (isolate HXB2)) + DNA dC->dU-editing enzyme APOBEC-3G (Homo sapiens) (UniProt P69720+P69721+P69722+P69723+Q9HC16)
EXPERIMENT NOTES: inhibitors of Vif binding to APOBEC3G peptide, primary screen, biochemical, TR-FRET, GST-Vif 1-94, biotin-A3G peptide, dose response retest (AID 1117319);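 further: Vif residues 1-94 fused to GST binding biotinylated APOBEC3G peptide 110-148; 0% = full assay without inhibitor and 100% = GST in place of GST-Vif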
CONDITION SET: hits give high values
The whole screen tested about 260,000 compounds, of which about 1,500 (0.58%) were called active. Another 5% or so got no clear call; they are omitted. The list is a sample of the results. Measured potencies and affinities stand elsewhere.

Worked set:
COc1ccc(-c2oc3c(CC=C(C)C)c(O[C@@H]4O[C@H](CO)[C@@H](O)[C@H](O)[C@H]4O)cc(O)c3c(=O)c2O[C@@H]2O[C@@H](C)[C@H](O)[C@@H](O)[C@H]2O)cc1 :: 0.27% (inactive)
CCCc1cc(=O)n2[nH]c(C)c(-c3ccccc3OC)c2n1 :: -0.45% (inactive)
O=C1/C(=C\c2cccnc2)SC(=S)N1c1ccc(F)cc1 :: 1.49% (inactive)

Request: Item under review: COc1cccc(NC(=O)CN(C)C(=O)c2cc(-c3ccco3)nc3ccccc23)c1 . Reported inhibition?
Result: 23.7% (inactive)

Request: Item under review: O=c1c(O[C@@H]2O[C@H](CO)[C@@H](O)[C@H](O)[C@H]2O)c(-c2ccc(O)c(O)c2)oc2cc(O)cc(O)c12 . Reported inhibition?
Result: -5.92% (inactive)

Request: Item under review: O=C(O)CSc1nnc(-c2ccncc2)n1C1CCCCC1 . Reported inhibition?
Result: -0.35% (inactive)

###

TARGET ENTITY: Virion infectivity factor (Human immunodeficiency virus type 1 group M subtype B (isolate BH10)) + Virion infectivity factor (Human immunodeficiency virus type 1 group M subtype B (isolate BRU/LAI)) + Virion infectivity factor (Human immunodeficiency virus type 1 group M subtype B (isolate PCV12)) + Virion infectivity factor (Human immunodeficiency virus type 1 group M subtype B (isolate HXB2)) + DNA dC->dU-editing enzyme APOBEC-3G (Homo sapiens) (UniProt P69720+P69721+P69722+P69723+Q9HC16)
EXPERIMENT NOTES: inhibitors of Vif binding to APOBEC3G peptide, primary screen, biochemical, TR-FRET, GST-Vif 1-94, biotin-A3G peptide, dose response retest (AID 1117319);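 further: Vif residues 1-94 fused to GST binding biotinylated APOBEC3G peptide 110-148; 0% = full assay without inhibitor and 100% = GST in place of GST-Vif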
CONDITION SET: hits give high values
Hit rate of the full screen: of about 260,000 compounds, about 1,500 (0.58%) were called active. About 5% were inconclusive and are not listed. Only a sample is shown. Entries with a potency or affinity are not part of this list.
Measured inhibition accompanies every entry in the list below.
Give the quantity in %, number only.

CC1(C)CC(=O)C2=C(C1)c1c(ccc3ccccc13)NC2c1ccco1 (centres undefined) :: 7.86

Request: Item under review: O=C(/C=C/Nc1ccc(Oc2ccccc2)cc1)c1ccco1 . Reported inhibition?
Result: 12.6

Request: Item under review: CCN(CC)S(=O)(=O)c1ccc(C(=O)OC2CCCCC2CN(C)C)cc1 (centres undefined) . Reported inhibition?
Result: -1.05

Request: Item under review: COC(=O)c1c(S(=O)(=O)N2CCOCC2)c(C)n(C)c1C . Reported inhibition?
Result: 2.63

Request: Item under review: CC(=O)C1=C(C)NC(=O)NC1c1cccs1 (centres undefined) . Reported inhibition?
Result: 7.19

Request: Item under review: CCCCOc1ccccc1C1NC(=O)NC(C)=C1C(=O)OCCOCC (centres undefined) . Reported inhibition?
Result: 2

Request: Item under review: c1ccc2c3c([nH]c2c1)CCNC3 . Reported inhibition?
Result: -5.47

Request: Item under review: CCOCCCNC(=O)C(NC(=O)C1CCC(=O)N1)c1ccc(C)cc1 (centres undefined) . Reported inhibition?
Result: 8.49

Request: Item under review: O=C(NCCn1cc(SCc2ccccc2F)c2ccccc21)c1c(F)cccc1F . Reported inhibition?
Result: 23.7
